Data origin, for the record: the supplement of paper PMC8728848

Exercise: state measured glycan array binding signal (z-score) for each of the binders provided.
# Test target: GlcNAc(b1-3)Gal(b1-4)GlcNAc(b1-3)Gal(b1-4)GlcNAc(b1-2)Man(a1-3)[GlcNAc(b1-3)Gal(b1-4)GlcNAc(b1-3)Gal(b1-4)GlcNAc(b1-2)Man(a1-6)]Man(b1-4)GlcNAc(b1-4)[Fuc(a1-6)]GlcNAc
# Procedure text: glycan array binding signal (z-score within array); higher = stronger binding
# Stated conditions: glycan notation: IUPAC condensed, linker removed
This excerpt belongs to a sample that is enriched for the strongest signals.
Answers are plain numbers.

Solved entries:
[
  {
    "Binder": "OS9 (Arabidopsis thaliana) (protein) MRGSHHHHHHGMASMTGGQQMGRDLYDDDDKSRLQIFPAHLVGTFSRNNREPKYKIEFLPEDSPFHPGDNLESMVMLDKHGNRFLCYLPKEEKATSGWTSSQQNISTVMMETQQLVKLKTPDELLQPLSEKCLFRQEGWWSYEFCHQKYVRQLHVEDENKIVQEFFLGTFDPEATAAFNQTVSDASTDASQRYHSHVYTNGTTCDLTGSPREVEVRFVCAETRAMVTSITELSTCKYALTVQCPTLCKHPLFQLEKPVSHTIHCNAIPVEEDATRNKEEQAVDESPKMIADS",
    "Measurement": -0.144
  },
  {
    "Binder": "Nc3LysM-2 (protein) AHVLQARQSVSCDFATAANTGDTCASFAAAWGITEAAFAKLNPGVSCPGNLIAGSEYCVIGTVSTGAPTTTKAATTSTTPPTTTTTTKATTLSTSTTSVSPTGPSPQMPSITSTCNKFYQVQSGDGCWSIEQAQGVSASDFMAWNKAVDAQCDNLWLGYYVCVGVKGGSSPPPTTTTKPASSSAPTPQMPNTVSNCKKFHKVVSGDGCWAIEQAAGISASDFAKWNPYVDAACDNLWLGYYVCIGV",
    "Measurement": 3.4
  },
  {
    "Binder": "Cohesin-hMARCO (Homo sapiens) (protein) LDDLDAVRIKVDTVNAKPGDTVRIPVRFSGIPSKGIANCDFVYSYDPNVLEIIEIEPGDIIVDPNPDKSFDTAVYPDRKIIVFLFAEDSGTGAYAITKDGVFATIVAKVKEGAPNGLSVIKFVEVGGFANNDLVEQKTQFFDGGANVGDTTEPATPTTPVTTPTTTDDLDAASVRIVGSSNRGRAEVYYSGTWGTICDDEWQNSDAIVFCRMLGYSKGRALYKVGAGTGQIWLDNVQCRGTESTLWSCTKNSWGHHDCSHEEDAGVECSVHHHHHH",
    "Measurement": -0.453
  }
]

In the following, a different binder is considered.
Would you kindly share the measured glycan array binding signal (z-score) for ABA (Agaricus bisporus), Q00022 (protein) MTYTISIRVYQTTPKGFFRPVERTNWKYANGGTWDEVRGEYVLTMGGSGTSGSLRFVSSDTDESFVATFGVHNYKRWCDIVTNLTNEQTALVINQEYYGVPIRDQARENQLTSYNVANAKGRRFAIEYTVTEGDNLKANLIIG ?
1.39
